System: Pichia kudriavzevii
measurement.protocol: Antimicrobial activity against Candida krusei isolate 31 after 48 hrs by microdilution broth method
Assay type: functional
test.settings: isolate 31, 48 h
Provide the reported log10(MIC) of each item.
Please note: log10 values; quantity MIC; unit µg/mL.

Worked examples follow.
Cc1nn(C)c(C)c1/[N+]([O-])=N/C#N: 1.51
C[C@@H](c1ncncc1F)[C@](O)(Cn1cncn1)c1ccc(F)cc1F: -0.92
Cc1nn(C)c(-c2cccs2)c1/[N+]([O-])=N/C#N: 0.00
Cc1c(/[N+]([O-])=N/C#N)c(-c2ccco2)nn1C: 0.00
Cc1c(/[N+]([O-])=N/C#N)c(-c2cccs2)nn1C: -0.30

Provide log10(MIC) values for the following items, in order.
1. Cc1cc(-c2nn(C)c(C)c2/[N+]([O-])=N/C#N)on1
2. Cc1cc(-c2c(/[N+]([O-])=N/C#N)c(C)nn2C)no1
3. Cc1c(/[N+]([O-])=N/C#N)c(-c2ccccn2)nn1C

stdout:
1.81
1.51
1.20
